The binders listed here are annotated with their Monocyte activation (THP1-Xblue, OD655).
- tgt: human CD40 on cells (HEK293 stable transfectants, HEK-Blue CD40 cells, human B cells, monocytic cells, … (human, UniProt P25942 21-277))
- Sequence (P25942 21-277 limits assumed): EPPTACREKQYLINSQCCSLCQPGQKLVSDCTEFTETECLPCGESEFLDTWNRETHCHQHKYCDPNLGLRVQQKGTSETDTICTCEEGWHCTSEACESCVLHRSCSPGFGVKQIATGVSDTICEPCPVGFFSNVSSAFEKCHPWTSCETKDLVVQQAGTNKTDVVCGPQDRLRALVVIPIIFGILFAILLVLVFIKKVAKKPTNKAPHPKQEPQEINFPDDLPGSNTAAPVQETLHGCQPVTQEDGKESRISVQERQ
- protocol_text: cell-based or functional assay

| binder | Monocyte activation (THP1-Xblue, OD655) |
| --- | --- |
| AD163.9.3 (antibody, V domains shown, mouse hybridoma antibody; also called muAb1) VH: QVQLQQPGAELVKPGASVKMSCKASGYTFTSYWITWVKQRPGQGLEWIGEINPGSGSTNYNEKFKSKATLTVDTSSSTAYMQLSSLTSEDSAVYYCARNRGTGDYWGQGTTLTVSS VL: DVVMTQTPLSLPVSLGDQASISCRSSQSLVHSYGNTYLHWYLQKPGQSPKFLIYKVSNRISGVPDRLSGSGSGTDFTLKISRVEPEDLGVYFCSQSTHVPYTFGGGTKLEIK | 0.19 OD655 |
| AD165.1.2 (antibody, V domains shown, mouse hybridoma antibody; also called muAb5) VH: DVQLQESGPGLVEPSQSLFLTCSVTGYSITTNYNWNWIRQFPGNKLEWMGYIRHDGTNNYNPSLKNRISIIRDTPKNQFFLKLNSVTTEDTAIYFCTRLDYWGQGTSVTVSS VL: DAVMTQTPLSLPVSLGDQASISCRSSQSLENSYGNTFLNWFLQRPGQSPQLLIYRVSNRFCGVPDRFSGSGSGTDFTLKISRVEAEDLGIYFCLQVTHVPYTFGGGTKLEIK | 0.14 OD655 |
| AD163.27.12 (antibody, V domains shown, mouse hybridoma antibody; also called muAb7) VH: QVQLQQPGAELVRPGSSVKLSCKASGYTFTSYWMHWVKQRPIQGLEWIGNIDPSNGETHYNQKFKDKATLTVDKSSSTAYMQLSSLTSEDSAVYYCARERIYYSGSTYDGYFDVWGTGTTVTVSS VL: QIVLTQSPAIMSASPGEKVTMTCSASSSLSYMHWYQQKSGTSPKRWIYDTSKLASGVPARFSGSGSGTSYSLTISSMEGEDGATYYCQQWSSNPWTFGGGTKLEIK | 0.12 OD655 |
